Quick reference: Gene expression AI594683 average of the listed items.
Test system: primary mouse hepatocytes
ASSAY_COMMENT: Gene expression (Affymetrix Mouse Genome 430 2.0) in primary mouse hepatocytes, true vs false GTX, 24 h and 48 h
ASSAY_CONTEXT: 48 h; log2, corrected for vehicle control
Form rule: numeric answer, no unit written next to it.

Worked cases, answers included:
INSERT INTO measurements (smiles_record, tgt, reading) VALUES
  ('O=c1c(O)c(-c2ccc(O)c(O)c2)oc2cc(O)cc(O)c12', 'primary mouse hepatocytes', '−0.1952'),
  ('Nc1ccccc1C(=O)O', 'primary mouse hepatocytes', '−0.5224'),
  ('Nc1ccc([N+](=O)[O-])cc1N', 'primary mouse hepatocytes', '−0.4763');

Gene expression AI594683 average reading for `CN(C)N=O` : 3.7761

Gene expression AI594683 average reading for `c1ccc2c(c1)cc1ccc3cccc4ccc2c1c34` : 1.466

Gene expression AI594683 average reading for `CC(=O)Nc1ccc2c(c1)Cc1ccccc1-2` : −0.05213

----------
Tested on: primary mouse hepatocytes
ASSAY_COMMENT: Gene expression (Affymetrix Mouse Genome 430 2.0) in primary mouse hepatocytes, true vs false GTX, 24 h and 48 h
ASSAY_CONTEXT: 48 h; log2, corrected for vehicle control
Quick reference: Gene expression AF335325 average of the listed items.
Form rule: numeric answer, no unit written next to it.

Worked cases, answers included:
INSERT INTO assay_data (compound, endpoint_label, reading) VALUES
  ('CC(=O)Nc1ccc2c(c1)Cc1ccccc1-2 [2-AAF, 2-Acetylaminofluorene]', 'Gene expression AF335325 average', '−0.3088'),
  ('Nc1ccccc1C(=O)O [ANAC, o-Anthranilic acid]', 'Gene expression AF335325 average', '−0.0865'),
  ('CN(C)N=O [DMN, Dimethylnitrosamine]', 'Gene expression AF335325 average', 1.6857),
  ('c1ccc2c(c1)cc1ccc3cccc4ccc2c1c34 [BaP, Benzo(a)pyrene]', 'Gene expression AF335325 average', 1.4875),
  ('O=c1c(O)c(-c2ccc(O)c(O)c2)oc2cc(O)cc(O)c12 [Q, Quercetin]', 'Gene expression AF335325 average', '−0.3547');

Param item: Nc1ccc([N+](=O)[O-])cc1N [4-NP, 4-Nitro-o-phenylenediamine] ; param system: primary mouse hepatocytes; output Gene expression AF335325 average: 0.5071

----------
Quick reference: Gene expression BC012247 average of the listed items.
Test system: primary mouse hepatocytes
ASSAY_COMMENT: Gene expression (Affymetrix Mouse Genome 430 2.0) in primary mouse hepatocytes, true vs false GTX, 24 h and 48 h
ASSAY_CONTEXT: 48 h; log2, corrected for vehicle control
Form rule: numeric answer, no unit written next to it.

INSERT INTO measurements (smiles_record, reading) VALUES
  ('c1ccc2c(c1)cc1ccc3cccc4ccc2c1c34', 1.477);

Gene expression BC012247 average reading for `Nc1ccc([N+](=O)[O-])cc1N` : −0.6355

Gene expression BC012247 average reading for `CN(C)N=O` : 1.67

Gene expression BC012247 average reading for `CC(=O)Nc1ccc2c(c1)Cc1ccccc1-2` : 0.6286

Gene expression BC012247 average reading for `O=c1c(O)c(-c2ccc(O)c(O)c2)oc2cc(O)cc(O)c12` : 0.1853

Gene expression BC012247 average reading for `Nc1ccccc1C(=O)O` : −0.5319

----------
Quick reference: Gene expression data AK007854 (1810053B23Rik) of the listed items.
Test system: primary mouse hepatocytes
ASSAY_COMMENT: Gene expression (Affymetrix Mouse Genome 430 2.0) in primary mouse hepatocytes, true vs false GTX, 24 h and 48 h
ASSAY_CONTEXT: 24 h average; log2, corrected for vehicle control
Form rule: numeric answer, no unit written next to it.

INSERT INTO assay_data (smiles_record, reading) VALUES
  ('Nc1ccc([N+](=O)[O-])cc1N', '−1.736'),
  ('c1ccc2c(c1)cc1ccc3cccc4ccc2c1c34', 0.3514),
  ('Nc1ccccc1C(=O)O', '−0.4283'),
  ('O=c1c(O)c(-c2ccc(O)c(O)c2)oc2cc(O)cc(O)c12', '−0.9336'),
  ('CN(C)N=O', 2.173);

Gene expression data AK007854 (1810053B23Rik) reading for `CC(=O)Nc1ccc2c(c1)Cc1ccccc1-2` : −0.9008

----------
System: primary mouse hepatocytes
ASSAY_COMMENT: Gene expression (Affymetrix Mouse Genome 430 2.0) in primary mouse hepatocytes, true vs false GTX, 24 h and 48 h
ASSAY_CONTEXT: 24 h average; log2, corrected for vehicle control
ENDPOINT_LABEL: Gene expression data BB318221 (Zdhhc14)
Form rule: numeric answer, no unit written next to it.

Worked cases, answers included:
INSERT INTO measurements (smiles_record, reading) VALUES
  ('Nc1ccc([N+](=O)[O-])cc1N', 0.0942),
  ('CC(=O)Nc1ccc2c(c1)Cc1ccccc1-2', '−0.411');

Gene expression data BB318221 (Zdhhc14) reading for `c1ccc2c(c1)cc1ccc3cccc4ccc2c1c34` : −1.679

Gene expression data BB318221 (Zdhhc14) reading for `O=c1c(O)c(-c2ccc(O)c(O)c2)oc2cc(O)cc(O)c12` : −0.1479

Gene expression data BB318221 (Zdhhc14) reading for `Nc1ccccc1C(=O)O` : 0.0002333

Gene expression data BB318221 (Zdhhc14) reading for `CN(C)N=O` : −1.041

----------
Quick reference: Gene expression AV254764 average of the listed items.
Tested on: primary mouse hepatocytes
ASSAY_COMMENT: Gene expression (Affymetrix Mouse Genome 430 2.0) in primary mouse hepatocytes, true vs false GTX, 24 h and 48 h
ASSAY_CONTEXT: 48 h; log2, corrected for vehicle control
Form rule: numeric answer, no unit written next to it.

INSERT INTO measurements (smiles_record, reading) VALUES
  ('c1ccc2c(c1)cc1ccc3cccc4ccc2c1c34', 1.48),
  ('Nc1ccc([N+](=O)[O-])cc1N', '−0.4499'),
  ('O=c1c(O)c(-c2ccc(O)c(O)c2)oc2cc(O)cc(O)c12', '−0.09113'),
  ('CN(C)N=O', 1.133),
  ('Nc1ccccc1C(=O)O', '−0.265');

Next compound, Gene expression AV254764 average to be filled in.
Gene expression AV254764 average reading for `CC(=O)Nc1ccc2c(c1)Cc1ccccc1-2` : −0.006467

----------
Quick reference: Gene expression data AF297615 (Ggta1) of the listed items.
Tested on: primary mouse hepatocytes
ASSAY_COMMENT: Gene expression (Affymetrix Mouse Genome 430 2.0) in primary mouse hepatocytes, true vs false GTX, 24 h and 48 h
ASSAY_CONTEXT: 24 h average; log2, corrected for vehicle control
Form rule: numeric answer, no unit written next to it.

INSERT INTO measurements (smiles_record, reading) VALUES
  ('Nc1ccc([N+](=O)[O-])cc1N', '−0.2797'),
  ('c1ccc2c(c1)cc1ccc3cccc4ccc2c1c34', 1.735),
  ('Nc1ccccc1C(=O)O', 0.03103),
  ('CC(=O)Nc1ccc2c(c1)Cc1ccccc1-2', 0.03187),
  ('CN(C)N=O', 3.2188);

Next compound, Gene expression data AF297615 (Ggta1) to be filled in.
Param item: `O=c1c(O)c(-c2ccc(O)c(O)c2)oc2cc(O)cc(O)c12` ; param system: primary mouse hepatocytes; output Gene expression data AF297615 (Ggta1): 0.8047

----------
Tested on: primary mouse hepatocytes
ASSAY_COMMENT: Gene expression (Affymetrix Mouse Genome 430 2.0) in primary mouse hepatocytes, true vs false GTX, 24 h and 48 h
ASSAY_CONTEXT: 24 h average; log2, corrected for vehicle control
ENDPOINT_LABEL: Gene expression data AK014608 (4632434l11Rik)
Form rule: numeric answer, no unit written next to it.

Worked cases, answers included:
INSERT INTO measurements (compound, reading) VALUES
  ('Nc1ccc([N+](=O)[O-])cc1N [4-NP, 4-Nitro-o-phenylenediamine]', 0.2958),
  ('Nc1ccccc1C(=O)O [ANAC, o-Anthranilic acid]', '−0.1768');

Gene expression data AK014608 (4632434l11Rik) reading for CC(=O)Nc1ccc2c(c1)Cc1ccccc1-2 [2-AAF, 2-Acetylaminofluorene] : −0.09823

----------
Tested on: primary mouse hepatocytes
ASSAY_COMMENT: Gene expression (Affymetrix Mouse Genome 430 2.0) in primary mouse hepatocytes, true vs false GTX, 24 h and 48 h
ASSAY_CONTEXT: 48 h; log2, corrected for vehicle control
ENDPOINT_LABEL: Gene expression AK007854 average
Form rule: numeric answer, no unit written next to it.

INSERT INTO measurements (smiles_record, endpoint_label, reading) VALUES
  ('CN(C)N=O', 'Gene expression AK007854 average', 0.8396),
  ('CC(=O)Nc1ccc2c(c1)Cc1ccccc1-2', 'Gene expression AK007854 average', 1.4303);

Next molecule, Gene expression AK007854 average to be filled in.
Gene expression AK007854 average reading for `Nc1ccc([N+](=O)[O-])cc1N` : −0.1411
